# key: entry, value: pIC50
- Tested on: HeLa cells
- Assay notes: [3H] Adenosine uptake assay
- Assay type: cell-based
- Settings: Homo sapiens, HeLa, accumulation of tritiated adenosine into HeLa cells; compound concentration range 10 μM to 0.032 nM; read-out: ADU inhibition IC50 (adenosine uptake inhibition potency)
Quick note: pIC50 values are minus log10 of concentrations in mol/L.

Check out these entries, answers already filled in.
# Compound, Target, pIC50
records = [
    ("COc1cc(C(=O)Nc2cc(C(F)(F)F)ccn2)cc(F)c1-c1nc(C2(C)CCC(C)(C(=O)O)CC2)n2ccnc(N)c12 (centres unmarked) [Example 127]", "HeLa cells", 5.00),
    ("CC(C)(C(=O)O)C1CCC(c2nc(-c3ccc(C(=O)Nc4cc(C(F)(F)F)ccn4)cc3)c3c(N)nccn23)C1 (centres unmarked) [Example 95]", "HeLa cells", 5.29),
    ("CC1(C(=O)O)CCC(N2CCC[C@@H](c3nc(-c4ccc(C(=O)Nc5cc(C(F)(F)F)ccn5)cc4F)c4c(N)nccn34)C2)CC1 (some centres unmarked) [Example 182]", "HeLa cells", 6.75),
    ("Nc1nccn2c([C@@H]3CC[C@H]4[C@H](C(=O)O)[C@H]43)nc(-c3ccc(C(=O)Nc4cc(C(F)(F)F)ccn4)cc3)c12 [Example 56]", "HeLa cells", 5.00),
    ("C[C@]1(C(=O)O)CC[C@H](N2CCO[C@@H](c3nc(-c4ccc(C(=O)Nc5cc(C6CC6)ccn5)cc4F)c4c(N)nccn34)C2)CC1 [Example 197]", "HeLa cells", 5.53),
    ("CCOc1cc(C(=O)Nc2cc(C(F)(F)F)ccn2)ccc1-c1nc(C23CCC(C(=O)O)(CC2)C2CC23)n2ccnc(N)c12 (centres unmarked) [Example 100]", "HeLa cells", 5.33),
    ("Nc1nccn2c(C34CCC(C(=O)O)(CC3)CC4)nc(-c3ccc(C(=O)Nc4cc(C(F)(F)F)ccn4)cc3Cl)c12 [Example 151]", "HeLa cells", 5.83),
    ("CCOc1cc(C(=O)Nc2cc(C(F)(F)F)ccn2)cc(F)c1-c1nc([C@@H]2CC[C@](C)(C(=O)O)C2(C)C)n2ccnc(N)c12 [Example 113]", "HeLa cells", 5.23),
]

Nc1nccn2c(-c3ccc(C(=O)O)o3)nc(-c3ccc(C(=O)Nc4cc(C(F)(F)F)ccn4)cc3)c12 [Example 28] has a reported pIC50 of 5.00

What the record says about CCOc1cc(C(=O)Nc2cc(C(F)(F)F)ccn2)ccc1-c1nc([C@H]2CC[C@@H](C(C)C)[C@@H](C(=O)O)C2)n2ccnc(N)c12 [Example 101] : pIC50 is 5.00

Sample Nc1nccn2c([C@@H]3C[C@@H]3C(=O)O)nc(-c3ccc(C(=O)Nc4cc(C(F)(F)F)ccn4)cc3)c12 [Example 167] ; pIC50 observed: 5.00

GET /value?item= COc1cc(C(=O)Nc2cc(C(F)(F)F)ccn2)ccc1-c1nc([C@H]2CN(C(=O)C34CC(C(=O)O)(C3)C4)[C@@H](C)CO2)n2ccnc(N)c12 [Example 177] &field=pIC50 returns 5.00

The compound listed as C[C@]1(C(=O)O)CC[C@@H](N2CCO[C@@H](c3nc(-c4ccc(C(=O)Nc5cc(C6CC6)ccn5)cc4F)c4c(N)nccn34)C2)CC1 [Example 198] has a reported pIC50 of 5.69

get_value(item= Nc1nccn2c([C@@H]3CCC[C@H](C(=O)O)C3)nc(-c3ccc(C(=O)Nc4cc(C(F)(F)F)ccn4)cc3F)c12 [Example 10] , readout=pIC50) returns 5.00

Form: compound = CC1(C)[C@H](c2nc(-c3ccc(C(=O)Nc4cc(C(F)(F)F)ccn4)cc3Cl)c3c(N)nccn23)CC[C@]1(C)C(=O)O [Example 129] ; pIC50 = 5.28
